- SYSTEM TESTED: Neuropeptide Y receptor type 5 (Homo sapiens, UniProt Q15761)
- Sequence (Q15761 whole entry): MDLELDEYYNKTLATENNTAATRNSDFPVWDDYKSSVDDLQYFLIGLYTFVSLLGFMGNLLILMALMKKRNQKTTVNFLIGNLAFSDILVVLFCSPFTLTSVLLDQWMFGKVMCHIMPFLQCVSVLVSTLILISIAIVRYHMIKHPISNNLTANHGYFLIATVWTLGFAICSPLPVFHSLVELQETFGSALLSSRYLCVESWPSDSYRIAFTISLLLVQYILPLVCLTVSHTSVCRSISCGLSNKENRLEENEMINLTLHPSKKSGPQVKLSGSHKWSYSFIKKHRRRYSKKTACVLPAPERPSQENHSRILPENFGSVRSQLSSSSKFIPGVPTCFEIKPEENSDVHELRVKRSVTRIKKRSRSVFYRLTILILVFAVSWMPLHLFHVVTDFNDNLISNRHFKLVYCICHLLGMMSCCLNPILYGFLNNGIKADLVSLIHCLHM
- PROTOCOL SUMMARY: Displacement of [125I]PPY from human recombinant NPYY5 receptor expressed in insect Sf9 membranes
pKi: −log10 of the molar value.
Listing of entries alongside the reported pKi.
REPORTED METRIC: pKi

| SMILES STR | NUMERIC READOUT |
| --- | --- |
| O=C1O[C@]2(CC[C@@H](N(CC(F)(F)F)C(=O)Nc3cnc(-c4ccccc4)cn3)CC2)Cc2ccccc21 | 5.63 |
| CN(C(=O)Nc1cnc(-c2ccccc2)cn1)[C@H]1CC[C@]2(CC1)OC(=O)c1ccncc12 | 9.00 |
| CN(C(=O)Nc1ccn(-c2ccccc2F)n1)[C@H]1CC[C@@]2(CC1)Cc1cnccc1C(=O)O2 | 6.73 |
| CN(C(=O)Nc1ccn(-c2ccccc2F)n1)[C@H]1CC[C@]2(CC1)OCc1ccccc12 | 8.00 |
